- system name: DGAT2
- conditions: ASO, HepG2, 0.12 µM
After the bases stand the sugars from the 5' end (letter, count) and the backbone: PS all phosphorothioate, else s phosphorothioate and o phosphodiester by linkage. Methylation of C is not given here. e = 2'-O-(2-methoxyethyl) (MOE); d = 2'-deoxy (DNA)
Measured target mRNA inhibition of individual entries
Output spec: scalar in %, unitless text.

{"columns": ["input sequence", "target mRNA inhibition (%)"],
 "data": [
  ["GATTATTCTAAAACTCAAAT (sugars e5 d10 e5, PS)", 0],
  ["TAGAAATACAATTCCTGGAT (sugars e5 d10 e5, PS)", 71],
  ["GGAGCCCTCACAGGGCCAGG (sugars e5 d10 e5, PS)", 38],
  ["GACTTCCCTTCACAGAATCC (sugars e5 d10 e5, PS)", 5],
  ["GGCACCAGCCCCCAGGTGTC (sugars e5 d10 e5, PS)", 30],
  ["TGGCTGGGAGGAGTCCAGCA (sugars e5 d10 e5, PS)", 10]
]}

Task item: Given the entry GAAGTCAGGCCAAGTGCCAA (sugars e5 d10 e5, PS) , report its measured target mRNA inhibition.
Reply: 26

Task item: Given the entry CAGGACCCACTGGAGCACTG (sugars e5 d10 e5, PS) , report its measured target mRNA inhibition.
Reply: 80

Task item: Given the entry TGTGTCTTCACCAGCTGGAT (sugars e5 d10 e5, PS) , report its measured target mRNA inhibition.
Reply: 55
